Some compounds, each annotated with its measured melting point.

compound: Cc1[nH]c(/C=C2\C(=O)Nc3cc(NC(=O)NC(=O)c4ccccc4F)ccc32)c(C)c1C(=O)O
melting point: 264 to 269 °C (dec.)
--
compound: O=C1Nc2cccc(NC(=O)c3cccn(-c4ccc(F)cc4)c3=O)c2/C1=C/c1ccc[nH]1
melting point: > 300 °C
--
compound: O=C1Nc2cc(NC(=O)c3cccn(-c4ccccc4)c3=O)ccc2/C1=C/c1ccc[nH]1
melting point: > 300 °C
--
compound: COc1ccc(-c2c[nH]cc(C(=O)Nc3ccc4c(c3)NC(=O)/C4=C\c3[nH]c(C)c(C(=O)N4CCN(C)CC4)c3C)c2=O)cc1
melting point: 235 °C (dec.)
--
compound: Cc1[nH]c(/C=C2\C(=O)Nc3cc(NC(=O)c4cccn(-c5ccc(F)cc5)c4=O)ccc32)c(C)c1CC(=O)O
melting point: 275 °C (dec.)
--
compound: COc1cc(OC)cc(C(=O)NC(=O)Nc2ccc3c(c2)NC(=O)/C3=C\c2[nH]c(C)c(C(=O)O)c2C)c1
melting point: > 300 °C
--
compound: O=C1Nc2cc(NC(=O)c3c[nH]cc(-c4ccc(F)cc4)c3=O)ccc2/C1=C/c1ccc[nH]1
melting point: > 300 °C
--
compound: COc1ccc(C(=O)NC(=O)Nc2ccc3c(c2)NC(=O)/C3=C\c2ccc(C(=O)O)[nH]2)cc1
melting point: 286 to 291 °C (dec.)
--
compound: COc1ccc(C(=O)NC(=O)Nc2ccc3c(c2)NC(=O)/C3=C\c2[nH]c(C)c(CC(=O)O)c2C)cc1
melting point: 240 to 245 °C (dec.)
--
compound: Cc1[nH]c(/C=C2\C(=O)Nc3cc(NC(=O)NC(=O)c4ccc(Cl)c(C(F)(F)F)c4)ccc32)c(C)c1CCC(=O)O (hydrate or solvate)
melting point: 270 to 275 °C (dec.)
--
compound: O=C1Nc2cc(NC(=O)c3cccn(-c4cccc(Cl)c4)c3=O)ccc2/C1=C/c1ccc[nH]1
melting point: > 300 °C
--
compound: O=C1Nc2cc(NC(=O)N3CCN(c4ccc(C(F)(F)F)cc4)C3=O)ccc2/C1=C/c1ccc[nH]1
melting point: > 300 °C
--
compound: O=C(NC(=O)c1ccccc1)Nc1ccc2c(c1)NC(=O)/C2=C\c1ccc[nH]1
melting point: 290 to 295 °C (dec.)
